Assay: DPPH radical scavenging assay
Type: biochemical
Details: IC50 values in µM presented for comparison
Quick list: IC50 per entry.
Report the value in µM with no unit label.

>  <compound>
O=C1O[C@H]([C@@H](O)CO)C(O)=C1O [Ascorbic acid, ascorbic acid]

>  <measuredResult>
57.8

$$$$

Give the measured IC50 of O=c1c(O)c(-c2ccc(O)c(O)c2)oc2cc(O)cc(O)c12 [Quercetin] . 45.7
